These measurements were taken from patent US20230416232A1.

- ASSAY TARGET: HER2 (A775_G776insYVMA) expressing Ba/F3 stable cell line (Homo sapiens, UniProt P04626, DUP772-775, cells depend on it)
- Sequence (P04626 with tags, fused parts or gaps DUP772-775): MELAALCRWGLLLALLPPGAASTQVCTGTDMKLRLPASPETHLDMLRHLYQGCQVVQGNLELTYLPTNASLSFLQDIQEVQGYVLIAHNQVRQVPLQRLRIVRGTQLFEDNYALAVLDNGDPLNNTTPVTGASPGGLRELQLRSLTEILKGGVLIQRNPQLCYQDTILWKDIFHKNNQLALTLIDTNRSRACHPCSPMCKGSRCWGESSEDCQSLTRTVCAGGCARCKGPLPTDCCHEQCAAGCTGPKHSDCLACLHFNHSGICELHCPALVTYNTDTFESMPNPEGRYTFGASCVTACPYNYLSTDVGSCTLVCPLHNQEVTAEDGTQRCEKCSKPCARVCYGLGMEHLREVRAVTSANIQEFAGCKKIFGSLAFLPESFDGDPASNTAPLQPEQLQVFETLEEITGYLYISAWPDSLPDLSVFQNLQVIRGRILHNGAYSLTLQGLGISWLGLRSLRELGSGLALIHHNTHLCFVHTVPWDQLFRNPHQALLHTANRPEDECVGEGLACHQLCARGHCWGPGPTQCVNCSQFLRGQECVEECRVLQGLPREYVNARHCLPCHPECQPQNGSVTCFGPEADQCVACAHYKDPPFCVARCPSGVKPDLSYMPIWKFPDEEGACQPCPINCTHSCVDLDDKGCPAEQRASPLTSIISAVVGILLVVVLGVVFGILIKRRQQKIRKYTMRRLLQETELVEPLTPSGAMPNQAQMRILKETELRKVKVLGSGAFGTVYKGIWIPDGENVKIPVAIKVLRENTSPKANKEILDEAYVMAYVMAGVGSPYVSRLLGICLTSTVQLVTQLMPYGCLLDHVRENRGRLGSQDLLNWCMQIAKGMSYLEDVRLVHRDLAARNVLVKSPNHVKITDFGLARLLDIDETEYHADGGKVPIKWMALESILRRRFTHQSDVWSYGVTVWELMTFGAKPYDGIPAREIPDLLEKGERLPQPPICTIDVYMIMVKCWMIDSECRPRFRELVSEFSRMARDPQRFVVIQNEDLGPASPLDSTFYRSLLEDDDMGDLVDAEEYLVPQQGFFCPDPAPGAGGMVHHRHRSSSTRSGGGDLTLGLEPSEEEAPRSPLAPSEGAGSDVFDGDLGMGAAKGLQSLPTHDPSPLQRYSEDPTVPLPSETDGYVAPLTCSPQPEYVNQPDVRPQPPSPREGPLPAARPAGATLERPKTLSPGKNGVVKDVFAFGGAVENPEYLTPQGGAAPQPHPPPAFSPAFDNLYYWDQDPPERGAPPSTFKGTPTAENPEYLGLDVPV
- METHOD: Cellular proliferation (Alamar Blue) assay, HER2 (A775_G776insYVMA) Ba/F3
- Format: cell-based
- EXPERIMENTAL SETUP: HER2 (A775_G776insYVMA) Ba/F3 cells; 72 hr; Alamar Blue; read-out: YVMA IC50
Please use fulfilled for GI50 under 100 nM and not fulfilled for everything else, ties included.

{"COMPOUND SMILES": "C=CC(=O)Nc1ccc(F)c(Nc2nc(Nc3cnn(C)c3)ncc2-c2cc(F)cc(OCC(F)(F)F)c2)c1", "CATEGORY LABEL": "not fulfilled"}
{"COMPOUND SMILES": "C=CC(=O)Nc1ccc(F)c(Nc2nc(Nc3cn(C)nc3Cl)ncc2-c2cc(F)cc(F)c2)c1", "CATEGORY LABEL": "fulfilled"}
{"COMPOUND SMILES": "C=CC(=O)Nc1ccc(F)c(Nc2nc(Nc3cnn(C)c3)ncc2-c2cc(F)cc(OC(F)(F)F)c2)c1", "CATEGORY LABEL": "not fulfilled"}
{"COMPOUND SMILES": "C=CC(=O)Nc1ccc(F)c(Nc2nc(Nc3cnn(C)c3)ncc2-c2ccc(Cl)c(Br)c2)c1", "CATEGORY LABEL": "not fulfilled"}
{"COMPOUND SMILES": "C=CC(=O)Nc1cc(F)cc(Nc2nc(Nc3cnn(C)c3)ncc2-c2ccc(Br)c(F)c2)c1", "CATEGORY LABEL": "fulfilled"}
{"COMPOUND SMILES": "C=CC(=O)Nc1cc(Br)cc(Nc2nc(Nc3cnn(C)c3)ncc2-c2cc(F)cc(C(F)F)c2)c1", "CATEGORY LABEL": "not fulfilled"}
{"COMPOUND SMILES": "C=CC(=O)Nc1ccc(F)c(Nc2nc(Nc3cnn(C)c3)ncc2-c2ccc(Br)cc2F)c1", "CATEGORY LABEL": "not fulfilled"}
{"COMPOUND SMILES": "CN(C)C/C=C/C(=O)Nc1ccc(F)c(Nc2nc(Nc3cnn(C)c3)ncc2-c2cc(F)c(Br)c(F)c2)c1", "CATEGORY LABEL": "not fulfilled"}
{"COMPOUND SMILES": "C=CC(=O)Nc1ccc(F)c(Nc2nc(Nc3cnn(C)c3)ncc2-c2cc(OC)cc(OC)c2)c1", "CATEGORY LABEL": "not fulfilled"}
{"COMPOUND SMILES": "C=CC(=O)Nc1ccc(F)c(Nc2nc(Nc3cnn(C4COC4)c3)ncc2-c2ccc(Br)c(F)c2)c1", "CATEGORY LABEL": "not fulfilled"}
{"COMPOUND SMILES": "C=CC(=O)Nc1cccc(Nc2nc(Nc3cnn(C)c3)ncc2-c2cc(F)cc(C(F)F)c2)c1", "CATEGORY LABEL": "fulfilled"}
{"COMPOUND SMILES": "C=CC(=O)Nc1ccc(F)c(Nc2nc(Nc3cnn(C)c3)ncc2-c2cc(F)cc(Br)c2)c1", "CATEGORY LABEL": "not fulfilled"}

---

- ASSAY TARGET: EGFR (H773insNPH) expressing Ba/F3 stable cell line (Homo sapiens, UniProt P00533, DUP771-773, cells depend on it)
- Sequence (P00533 with tags, fused parts or gaps DUP771-773): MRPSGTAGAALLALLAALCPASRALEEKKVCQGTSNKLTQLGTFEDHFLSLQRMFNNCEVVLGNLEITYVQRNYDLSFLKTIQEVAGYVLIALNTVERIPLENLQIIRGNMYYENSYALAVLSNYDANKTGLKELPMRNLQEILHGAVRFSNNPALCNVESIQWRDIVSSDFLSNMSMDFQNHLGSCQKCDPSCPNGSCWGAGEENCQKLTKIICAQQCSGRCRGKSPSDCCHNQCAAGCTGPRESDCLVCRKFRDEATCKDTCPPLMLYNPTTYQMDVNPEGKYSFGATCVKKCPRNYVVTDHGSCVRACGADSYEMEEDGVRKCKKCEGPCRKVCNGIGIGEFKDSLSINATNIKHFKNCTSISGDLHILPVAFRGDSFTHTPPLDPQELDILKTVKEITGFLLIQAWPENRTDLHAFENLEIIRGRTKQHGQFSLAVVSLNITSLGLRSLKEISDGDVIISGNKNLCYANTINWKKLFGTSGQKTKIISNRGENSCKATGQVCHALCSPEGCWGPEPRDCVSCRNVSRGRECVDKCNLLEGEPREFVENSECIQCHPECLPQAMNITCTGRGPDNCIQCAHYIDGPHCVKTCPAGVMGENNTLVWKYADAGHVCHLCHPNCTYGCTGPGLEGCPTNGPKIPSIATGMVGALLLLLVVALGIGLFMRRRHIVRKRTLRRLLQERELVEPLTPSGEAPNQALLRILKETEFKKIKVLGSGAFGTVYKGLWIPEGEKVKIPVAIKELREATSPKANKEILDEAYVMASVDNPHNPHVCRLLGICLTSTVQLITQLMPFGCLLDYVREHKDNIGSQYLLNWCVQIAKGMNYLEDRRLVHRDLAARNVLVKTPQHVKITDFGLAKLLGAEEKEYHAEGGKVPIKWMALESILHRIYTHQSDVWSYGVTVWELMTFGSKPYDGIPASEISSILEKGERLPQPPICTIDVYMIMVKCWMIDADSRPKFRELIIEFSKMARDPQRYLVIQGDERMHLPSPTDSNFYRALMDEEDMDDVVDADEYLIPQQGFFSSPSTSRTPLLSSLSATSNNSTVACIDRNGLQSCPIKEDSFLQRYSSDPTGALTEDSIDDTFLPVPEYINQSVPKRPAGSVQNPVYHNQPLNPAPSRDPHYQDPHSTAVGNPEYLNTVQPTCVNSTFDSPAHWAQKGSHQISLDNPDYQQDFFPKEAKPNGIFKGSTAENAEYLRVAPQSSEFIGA
- METHOD: Cellular proliferation (Alamar Blue) assay, EGFR (H773insNPH) Ba/F3
- Type: cell-based
- EXPERIMENTAL SETUP: 72 hr, read-out: NPH IC50

{"COMPOUND SMILES": "C=CC(=O)Nc1ccc(F)c(Nc2nc(Nc3cnn(C)c3)ncc2-c2cnc(Cl)c(C)c2)c1", "GI50 / nM": 31}
{"COMPOUND SMILES": "C=CC(=O)Nc1ccc(F)c(Nc2nc(Nc3cnn(C)c3)ncc2-c2ccc(Cl)c(Br)c2)c1", "GI50 / nM": 156}
{"COMPOUND SMILES": "C=CC(=O)Nc1ccc(F)c(Nc2nc(Nc3cnn(C)c3)ncc2-c2ccc(N(C)C)c(F)c2)c1", "GI50 / nM": 47}
{"COMPOUND SMILES": "C=CC(=O)Nc1ccc(F)c(Nc2nc(Nc3cnn(C)c3)ncc2-c2ccc(Cl)c(F)c2)c1", "GI50 / nM": 52}
